Would you kindly list HepSE_jaundice for each of these molecules?
Test system: Hepatotoxicity;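 further: Jaundice-related hepatic side-effect score drawn from the training data of the DILIps (drug-induced liver injury prediction system)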; further: call rule not given here
Just the number, please, no unit after it.

Please look up its HepSE_jaundice: COC(=O)CCc1ccc(OCC(O)CNC(C)C)cc1 (stereo unspecified) 0

Please look up its HepSE_jaundice: "CCOCCn1c(N2CCCN(C)CC2)nc2ccccc21" 0

Please look up its HepSE_jaundice: "CO[C@H]1/C=C/O[C@@]2(C)Oc3c(C)c(O)c4c(O)c(c(/C=N/N5CCN(C6CCCC6)CC5)c(O)c4c3C2=O)NC(=O)/C(C)=C\C=C\[C@H](C)[C@H](O)[C@@H](C)[C@@H](O)[C@@H](C)[C@H](OC(C)=O)[C@@H]1C" 0

Please look up its HepSE_jaundice: "CCc1nc(N)nc(N)c1-c1ccc(Cl)cc1" 0

Please look up its HepSE_jaundice: Cc1cccc(CN2CCN(C(c3ccccc3)c3ccc(Cl)cc3)CC2)c1 (stereo unspecified) 0

Please look up its HepSE_jaundice: "CNS(=O)(=O)Cc1ccc2[nH]cc(CCN(C)C)c2c1" 0

Please look up its HepSE_jaundice: COc1cccc(C2(O)CCCCC2CN(C)C)c1 (stereo unspecified) 0

Please look up its HepSE_jaundice: N[C@@H](C(=O)N[C@@H]1C(=O)N2C(C(=O)O)=C(Cl)CS[C@H]12)c1ccccc1 [CEFACLOR ANHYDROUS] 1

Please look up its HepSE_jaundice: CN1C[C@H](C(=O)N[C@]2(C)O[C@@]3(O)[C@@H]4CCCN4C(=O)[C@H](Cc4ccccc4)N3C2=O)C[C@@H]2c3cccc4[nH]cc(c34)C[C@H]21 [DIHYDROERGOTAMINE] 0

Please look up its HepSE_jaundice: CC(=O)OCC(=O)[C@@]12OC3(CCCC3)O[C@@H]1C[C@H]1[C@@H]3CCC4=CC(=O)C=C[C@]4(C)[C@@]3(F)[C@@H](O)C[C@@]12C [AMCINONIDE] 0

Please look up its HepSE_jaundice: "CCCc1nc2c(C)cc(-c3nc4ccccc4n3C)cc2n1Cc1ccc(-c2ccccc2C(=O)O)cc1" 0

Please look up its HepSE_jaundice: c1ccc2c(c1)CCCC2C1=NCCN1 (stereo unspecified) [TETRAHYDROZOLINE] 0

Please look up its HepSE_jaundice: "CS(=O)(=O)c1ccc(C2=C(c3ccccc3)C(=O)OC2)cc1" 1

Please look up its HepSE_jaundice: "CC=CC1=C(C(=O)O)N2C(=O)[C@@H](NC(=O)[C@H](N)c3ccc(O)cc3)[C@H]2SC1" 1

Please look up its HepSE_jaundice: "CC[C@@H](CO)NC(=O)[C@@H]1C=C2c3cccc4[nH]cc(c34)C[C@H]2N(C)C1" 0

Please look up its HepSE_jaundice: "CN(C)CCC=C1c2ccccc2CCc2ccccc21" 1
